Target: BDNF/NT-3 growth factors receptor (Homo sapiens, UniProt Q16620)
Sequence (Q16620 whole entry): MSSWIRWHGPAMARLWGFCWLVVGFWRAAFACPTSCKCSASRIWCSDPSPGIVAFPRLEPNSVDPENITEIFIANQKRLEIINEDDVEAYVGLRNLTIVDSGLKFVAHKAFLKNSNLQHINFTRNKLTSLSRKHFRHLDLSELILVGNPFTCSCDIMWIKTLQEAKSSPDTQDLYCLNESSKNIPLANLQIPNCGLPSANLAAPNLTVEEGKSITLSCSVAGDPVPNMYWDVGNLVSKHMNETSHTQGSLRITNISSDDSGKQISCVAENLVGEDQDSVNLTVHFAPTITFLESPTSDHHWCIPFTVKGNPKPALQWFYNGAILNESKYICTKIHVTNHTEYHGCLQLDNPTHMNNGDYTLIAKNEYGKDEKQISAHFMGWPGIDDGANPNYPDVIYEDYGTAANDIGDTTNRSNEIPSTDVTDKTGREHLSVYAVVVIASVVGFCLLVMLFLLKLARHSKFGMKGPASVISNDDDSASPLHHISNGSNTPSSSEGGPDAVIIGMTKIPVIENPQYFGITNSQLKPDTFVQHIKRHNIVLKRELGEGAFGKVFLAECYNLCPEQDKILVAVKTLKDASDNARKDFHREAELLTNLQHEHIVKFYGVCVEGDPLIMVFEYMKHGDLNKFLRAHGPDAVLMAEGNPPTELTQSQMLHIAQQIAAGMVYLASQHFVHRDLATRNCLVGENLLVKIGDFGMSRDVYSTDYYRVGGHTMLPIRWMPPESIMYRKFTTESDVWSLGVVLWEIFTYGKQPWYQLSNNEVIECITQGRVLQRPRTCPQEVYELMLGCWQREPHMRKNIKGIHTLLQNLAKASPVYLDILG
pKd: −log10 of the molar value.

{"columns": ["COMPOUND", "pKd"],
 "data": [
  ["CC(=O)Nc1cccc(-c2cnc(N)c(NC(C)c3ccccc3)n2)c1 (racemic)", 7.22]
]}

###

Target: High affinity nerve growth factor receptor (Homo sapiens, UniProt P04629)
Sequence (P04629 33-796 limits assumed): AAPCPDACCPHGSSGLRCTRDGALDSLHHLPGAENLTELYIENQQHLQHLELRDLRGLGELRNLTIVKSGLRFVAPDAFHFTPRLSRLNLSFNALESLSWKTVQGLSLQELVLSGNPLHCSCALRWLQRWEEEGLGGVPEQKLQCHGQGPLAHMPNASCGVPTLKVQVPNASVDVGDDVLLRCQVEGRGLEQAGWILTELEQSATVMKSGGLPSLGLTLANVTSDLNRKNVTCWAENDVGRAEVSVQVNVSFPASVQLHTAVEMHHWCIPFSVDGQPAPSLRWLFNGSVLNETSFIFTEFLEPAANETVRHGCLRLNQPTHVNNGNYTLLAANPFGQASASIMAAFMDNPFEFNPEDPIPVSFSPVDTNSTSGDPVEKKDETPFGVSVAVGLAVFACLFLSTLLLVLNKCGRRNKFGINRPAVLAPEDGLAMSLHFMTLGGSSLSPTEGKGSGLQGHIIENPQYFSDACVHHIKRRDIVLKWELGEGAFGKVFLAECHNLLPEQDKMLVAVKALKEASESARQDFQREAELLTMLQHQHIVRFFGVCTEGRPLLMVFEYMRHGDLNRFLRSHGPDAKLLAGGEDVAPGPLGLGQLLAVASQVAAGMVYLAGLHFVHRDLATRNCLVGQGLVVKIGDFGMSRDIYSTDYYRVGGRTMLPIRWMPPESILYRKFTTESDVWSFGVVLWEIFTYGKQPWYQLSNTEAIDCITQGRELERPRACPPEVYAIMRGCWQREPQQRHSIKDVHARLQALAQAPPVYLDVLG
Details: dose 100.0 nM
Description: Inhibition of TRKA (unknown origin) at 100 nM relative to control
VALUE_TYPE: inhibition (%)

{"columns": ["MOLECULE", "MEASUREMENT_UNITS", "REPORTED_VALUE"],
 "data": [
  ["CC(Nc1nc(-c2cccc(C(=O)N(C)C)c2)cnc1N)c1ccccc1 (racemic)", "%", 67],
  ["CN(C)c1cccc(-c2cnc(N)c(NCc3ccccc3)n2)c1", "%", 79],
  ["CC(C)Oc1cccc(-c2cnc(N)c(NC(C)c3ccccc3)n2)c1 (racemic)", "%", 21],
  ["CC(Nc1nc(-c2cc(C(F)(F)F)cc(C(F)(F)F)c2)cnc1N)c1ccccc1 (racemic)", "%", 10],
  ["CN(C)c1cccc(-c2cnc(N)c(NCc3cccnc3)n2)c1", "%", 50],
  ["CC(Nc1nc(-c2ccccc2)cnc1N)c1ccccc1 (racemic)", "%", 38],
  ["CC(Nc1nc(-c2cccc(N(C)C)c2)cnc1N)c1ccc(S(C)(=O)=O)cc1 (racemic)", "%", 46],
  ["CC(Nc1nc(-c2cccc([N+](=O)[O-])c2)cnc1N)c1ccccc1 (racemic)", "%", 55],
  ["COc1ccc(C(C)Nc2nc(-c3cccc(N(C)C)c3)cnc2N)cc1 (racemic)", "%", 17],
  ["CC(Nc1nc(-c2cccc(N(C)C)c2)cnc1N)c1cccc(C(F)(F)F)c1 (racemic)", "%", 44],
  ["CCC(Nc1nc(-c2cccc(N(C)C)c2)cnc1N)c1ccccc1 (racemic)", "%", 73]
]}
